# condition: 308.15 K; 101 kPa; Liquid; Sing-around technique in a fixed-path interferometer
endpoint.label: speed of sound (m/s)
Answer format: numeric, m/s implied, no suffix.

// below: answered molecules
- CCCCn1cc[n+](C)c1.N#CN=C=[N-] [1-butyl-3-methylimidazolium dicyanamide]: 1713.1
- CCCC[N+]1(C)CCCC1.O=S(=O)([O-])C(F)(F)F [1-butyl-1-methylpyrrolidinium trifluoromethanesulfonate]: 1436.7
- CCOS(=O)(=O)[O-].CCc1cccc[n+]1CC [1,2-diethylpyridinium ethylsulfate]: 1718.4
- COS(=O)(=O)[O-].C[n+]1ccccc1 [1-methylpyridinium methylsulfate]: 1852.4
- CCCCn1cc[n+](C)c1.O=S(=O)([O-])C(F)(F)F [1-butyl-3-methylimidazolium trifluoromethanesulfonate]: 1369.1
- CCCCCCn1cc[n+](C)c1.N#CN=C=[N-] [1-hexyl-3-methylimidazolium dicyanamide]: 1662.7
- CCCC[n+]1cccc(C)c1.O=S(=O)([O-])C(F)(F)F [1-butyl-3-methylpyridinium trifluoromethanesulfonate]: 1389.6

Now consider a different molecule.
Quick note, speed of sound for CCCC[N+]1(C)CCCC1.N#CN=C=[N-] [1-butyl-1-methylpyrrolidinium dicyanamide] landed at 1781.9

* * *

# condition: 288.15 K; 101 kPa; Liquid; Sing-around technique in a fixed-path interferometer
// reported speed of sound for each item listed
Answer format: numeric, m/s implied, no suffix.

Quick note, speed of sound for CCCC[N+]1(C)CCCC1.O=S(=O)([O-])C(F)(F)F [1-butyl-1-methylpyrrolidinium trifluoromethanesulfonate] landed at 1484.6

Quick note, speed of sound for CCCCn1cc[n+](C)c1.O=S(=O)([O-])C(F)(F)F [1-butyl-3-methylimidazolium trifluoromethanesulfonate] landed at 1414.3

Quick note, speed of sound for CCCC[N+]1(C)CCCC1.N#CN=C=[N-] [1-butyl-1-methylpyrrolidinium dicyanamide] landed at 1836.9

Quick note, speed of sound for CCCCn1cc[n+](C)c1.N#CN=C=[N-] [1-butyl-3-methylimidazolium dicyanamide] landed at 1764.3

* * *

# assay.summary: refractive index (Na D-line) (dimensionless)
# condition: 308.15 K; 101.33 kPa; Liquid; Standard Abbe refractometry
// reported refractive index for each item listed
Please give the numeric answer without any surrounding text.

// below: answered compounds
• CCCC[n+]1cccc(C)c1.O=S(=O)([O-])C(F)(F)F [1-butyl-3-methylpyridinium trifluoromethanesulfonate] = 1.45868
• CCCCCCn1cc[n+](C)c1.N#CN=C=[N-] [1-hexyl-3-methylimidazolium dicyanamide] = 1.501
• CCOS(=O)(=O)[O-].CCc1cccc[n+]1CC [1,2-diethylpyridinium ethylsulfate] = 1.51067

Quick note, refractive index for CCCCn1cc[n+](C)c1.N#CN=C=[N-] [1-butyl-3-methylimidazolium dicyanamide] landed at 1.50578

* * *

# assay.summary: refractive index (Na D-line) (dimensionless)
# condition: 308.15 K; 101 kPa; Liquid; Standard Abbe refractometry
endpoint.label: refractive index
Please give the numeric answer without any surrounding text.

- COS(=O)(=O)[O-].C[n+]1ccccc1 [1-methylpyridinium methylsulfate]: 1.51077

Quick note, refractive index for CCCCn1cc[n+](C)c1.O=S(=O)([O-])C(F)(F)F [1-butyl-3-methylimidazolium trifluoromethanesulfonate] landed at 1.43475

* * *

// reported mass density for each item listed
# condition: 298.15 K; 101 kPa; Liquid; Vibrating tube method
± gives the expanded uncertainty stated by the source.

// below: answered molecules
- CCCC[N+]1(C)CCCC1.O=S(=O)([O-])C(F)(F)F [1-butyl-1-methylpyrrolidinium trifluoromethanesulfonate]: 1252.98 ± 0.57 kg/m3
- CCCC[n+]1cccc(C)c1.O=S(=O)([O-])C(F)(F)F [1-butyl-3-methylpyridinium trifluoromethanesulfonate]: 1279.41 ± 0.6 kg/m3

Quick note, mass density for CCCCn1cc[n+](C)c1.O=S(=O)([O-])C(F)(F)F [1-butyl-3-methylimidazolium trifluoromethanesulfonate] landed at 1299.55 ± 0.62 kg/m3
